Give residual activity for every item shown.
Target: AXL (human)
Test: radiometric filter-binding kinase assay, Kinase HotSpot
Settings: compound 0.5 µM; ATP 10 µM
Entry rule: numbers only, all in %.

Item CCCC(=O)Oc1ccc2[nH]c(C(=O)c3cc4ccccc4[nH]3)cc2c1 : provide residual activity
103

Item CNC(=O)c1cc(Oc2ccc(NC(=O)Nc3ccc(Cl)c(C(F)(F)F)c3)cc2)ccn1 : provide residual activity
105

Item O=C1NC(=O)c2c1c1c3ccccc3n3c1c1c2c2ccccc2n1C1CCC3O1 : provide residual activity
38.1

###

Give residual activity for every item shown.
Target: BRSK1 (human)
Assay: radiometric filter-binding kinase assay, Kinase HotSpot
Conditions: compound 0.5 µM; ATP 10 µM
Entry rule: numbers only, all in %.

Item Nc1ccc2ncnc(NCCc3ccc(Oc4ccccc4)cc3)c2c1 : provide residual activity
101

Item O=C1NC(=O)c2c1c1c3ccccc3n3c1c1c2c2ccccc2n1C1CCC3O1 : provide residual activity
14.8

Item O=C1NC(=O)C(c2cn(CCCn3ccnc3)c3ccccc23)=C1Nc1ccccc1 : provide residual activity
95.3

Item COc1cc2ncnc(Nc3cccc(Cl)c3)c2cc1OC : provide residual activity
93.1

Item N#CC(C#N)=C(N)/C(C#N)=C/c1ccc(O)cc1 : provide residual activity
99.2

Item CCCC(=O)Oc1ccc2[nH]c(C(=O)c3cc4ccccc4[nH]3)cc2c1 : provide residual activity
99.5

Item c1ccc(-c2n[nH]cc2-c2ccnc3ccccc23)nc1 : provide residual activity
99

Item CCC(=O)Nc1ccc2ncnc(Nc3cccc(Br)c3)c2c1 : provide residual activity
83.3

Item CC(C)N(CCC(=O)c1ccc2ccccc2c1)Cc1ccccc1 : provide residual activity
98

Item Oc1cccc(-c2nc(N3CCOCC3)c3oc4ncccc4c3n2)c1 : provide residual activity
91.1

Item O=c1cc(N2CCOCC2)oc2c1ccc1ccccc12 : provide residual activity
100

Item O=S(=O)(c1cccc2cnccc12)N1CCCNCC1 : provide residual activity
97.5

Item N#C/C(=C(/N)Sc1ccc(N)cc1)c1ccccc1C(F)(F)F : provide residual activity
91.2

Item CCN(CC)C(=O)c1ccc(Nc2nc(OCC3CCCCC3)c3nc[nH]c3n2)cc1 : provide residual activity
84

Item Nc1cccc(-c2cc3c(Oc4cccc(O)c4)ncnc3[nH]2)c1 : provide residual activity
83.1

Item O=C1Nc2ccc(Cl)cc2/C1=C/c1cc(Cl)c(O)c(Cl)c1 : provide residual activity
81.3

Item Cc1ccc(S(=O)(=O)/C=C/C#N)cc1 : provide residual activity
97.2

Item O=C(Nc1cccc(Nc2nccc(Nc3cccc(C(F)(F)F)c3)n2)c1)C1CC1 : provide residual activity
97.1

Item COc1ccc(COc2ccc(Cc3cnc(N)nc3N)cc2OC)cc1 : provide residual activity
95.6

Item Nc1ncnc2c1c(-c1ccc(Oc3ccccc3)cc1)cn2C1CCCC1 : provide residual activity
99.7

Item COc1ccc2c(c[n+](C)c3c4cc5c(cc4ccc23)OCO5)c1OC : provide residual activity
90.8
